# TARGET SYSTEM: Gag-Pol polyprotein (Woolly monkey sarcoma virus, UniProt P03359)
# Sequence (P03359 642-1310 limits assumed): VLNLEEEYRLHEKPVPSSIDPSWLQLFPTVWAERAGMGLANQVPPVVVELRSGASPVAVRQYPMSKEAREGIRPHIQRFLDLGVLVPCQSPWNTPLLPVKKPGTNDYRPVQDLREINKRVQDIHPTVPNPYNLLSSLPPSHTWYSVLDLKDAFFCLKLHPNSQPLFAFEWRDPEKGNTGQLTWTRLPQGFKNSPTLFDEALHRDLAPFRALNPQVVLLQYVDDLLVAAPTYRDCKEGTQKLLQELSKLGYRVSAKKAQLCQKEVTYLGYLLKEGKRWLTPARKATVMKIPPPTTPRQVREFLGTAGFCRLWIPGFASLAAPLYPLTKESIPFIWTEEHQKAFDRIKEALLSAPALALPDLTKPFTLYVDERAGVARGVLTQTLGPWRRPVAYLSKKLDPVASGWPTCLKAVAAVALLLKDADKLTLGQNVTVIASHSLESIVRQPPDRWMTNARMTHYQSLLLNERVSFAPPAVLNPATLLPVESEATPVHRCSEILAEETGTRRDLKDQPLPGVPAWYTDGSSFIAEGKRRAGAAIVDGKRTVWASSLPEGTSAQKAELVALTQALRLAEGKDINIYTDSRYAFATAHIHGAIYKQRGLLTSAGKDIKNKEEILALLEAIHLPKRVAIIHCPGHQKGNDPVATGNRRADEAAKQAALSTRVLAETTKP
# RUN DESCRIPTION: Ability to inhibit simian sarcoma virus reverse transcriptase
# CONDITION CONTEXT: read-out: IC50
READOUT LABEL: IC50 (µM)

Some entries whose results are on file:
MOLECULE	READOUT LABEL	RESULT VALUE
CCCCCCCCO/N=C/c1cc2c3c4c(C)c(O)c2c(O)c1NC(=O)/C(C)=C\C=C\C(C)C(O)C(C)C(O)C(C)C(OC(C)=O)C(C)C(OC)/C=C/OC(C)(O4)C3=O (stereo unspecified)	IC50	1
COC1/C=C/OC2(C)Oc3c(C)c(O)c4c(O)c(c(C=O)cc4c3C2=O)NC(=O)/C(C)=C\C=C\C(C)C(O)C(C)C(O)C(C)C(OC(C)=O)C1C (stereo unspecified)	IC50	17
CCN(CC)Cc1cc2c3c4c(C)c(O)c2c(O)c1NC(=O)/C(C)=C\C=C\C(C)C(O)C(C)C(O)C(C)C(OC(C)=O)C(C)C(OC)/C=C/OC(C)(O4)C3=O (stereo unspecified)	IC50	40

(A) COC1/C=C/OC2(C)Oc3c(C)c(O)c4c(O)c(c(O)cc4c3C2=O)NC(=O)/C(C)=C\C=C\C(C)C(O)C(C)C(O)C(C)C(OC(C)=O)C1C (stereo unspecified)
(B) COC1/C=C/OC2(C)Oc3c(C)c(O)c4c(O)c(c(/C=N/N5CCCCCCCCCCCC5)cc4c3C2=O)NC(=O)/C(C)=C\C=C\C(C)C(O)C(C)C(O)C(C)C(OC(C)=O)C1C (stereo in doubt; 17)
## Task Please let me know which one, A or B , has a lower measured IC50 value. Return value: the label identifying the chosen record.
## Result B
(B: 3.3 µM, A: 13 µM)
